Record type: log10(Kd) measurement. Applies to: hCereblon(M1-L442)_hDDB1(M1-H1140) (Homo sapiens (Human), UniProt Q96SW2)
Values reflect log10 of reported Kd (nM).

Recorded results for 3 compounds are shown here.
Prompt line: # lookup: log10(Kd) of COC(=O)c1ccc(N2CCC3(CC2)CC(=O)NC3=O)nc1
Response line: 1.04

Prompt line: Next record, please: CC(=O)N1CCc2cc(C(=O)N3CCC4(CCC(=O)NC4=O)C3)ccc21 (centres unmarked)
Response line: 1.61

Prompt line: Next record, please: O=C1NC(=O)C2(CCN(C(=O)c3ccccc3)CC2)N1
Response line: 0.30

Query compound follows.
Prompt line: # lookup: log10(Kd) of CC(C)(C)OC(=O)Nc1nc2ccc(C(=O)N3CCC4(CCC(=O)NC4=O)C3)cc2s1 (centres unmarked)
Response line: 0.60
